system: DMS-273; assay: cells; type: functional, cell-based; details: Homo sapiens
Description: SANGER: Inhibition of human DMS-273 cell growth in a cell viability assay.
pIC50: −log10 of the molar value.
This section presents molecules with their documented pIC50 values.

Molecule	pIC50
O=C(NCCCNc1nc(Nc2cccc(NC(=O)N3CCCC3)c2)ncc1I)c1cccs1 [BX-795]	< 5.30

# input Bench note: what pIC50 did `OC[C@H](Cc1ccccc1)Nc1nc(Oc2ccc3c(c2)CCC3)nc2c1ncn2Cc1ccc(-c2ccccc2)cc1` show?
# output < 4.99

# input Param item = `COc1ccc(-c2cc3nccn3c(Nc3ncccc3C(N)=O)n2)cc1OC` ; retrieve measured pIC50.
# output 5.18

---

test system: GR-ST; assay: cells; format: functional, cell-based, Homo sapiens; details: Homo sapiens, GR-ST
Description: SANGER: Inhibition of human GR-ST cell growth in a cell viability assay.
pIC50: −log10 of the molar value.
# pIC50 annotations

NC(=O)c1ccc(N(C(N)=O)c2c(F)cccc2F)nc1-c1ccc(F)cc1F < 5.70
Cc1ccc(-n2nc(C(C)(C)C)cc2NC(=O)Nc2ccc(OCCN3CCOCC3)c3ccccc23)cc1 < 5.00
O=S(=O)(O)c1ccc2cc(/N=N/c3cc(S(=O)(=O)O)c4cccnc4c3O)ccc2c1 < 4.80

# input Please state recorded pIC50 (tested on GR-ST) of `CC1=C(/C=C/C(C)=C/C=C/C(C)=C/C(=O)O)C(C)(C)CCC1`
# output < 5.00

---

system: NCI-H1304; test: cells; type: functional, cell-based, Homo sapiens; details: nci-h1304;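 also: growth inhibition of the cancer cell line, measured in a cell viability assay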
Description: SANGER: Inhibition of human NCI-H1304 cell growth in a cell viability assay.
pIC50: −log10 of the molar value. Where a SMILES comes first, the peptide text is derived from it. The star is where a group is joined. Cbz = O=C(OCc1ccccc1)*
Measurement Label: pIC50

# input I have this molecule here, CC(C)C[C@@H](C=O)NC(=O)[C@H](CC(C)C)NC(=O)[C@H](CC(C)C)NC(=O)OCc1ccccc1 [MG-132] (Cbz-Leu-Leu-Leu-aldehyde) , and I need its recorded pIC50.
# output < 6.00

---

// IC50 lookup, one value per entry
test system: PF-382; assay: cells; format: functional, cell-based, Homo sapiens; details: Homo sapiens, PF-382
Description: SANGER: Inhibition of human PF-382 cell growth in a cell viability assay.

# annotated cases, reported IC50 shown
Molecule	Measured Value
Cc1cc(N2CCOCC2)cc2[nH]c(-c3c(NC[C@@H](O)c4cccc(Cl)c4)cc[nH]c3=O)nc12	> 5120 nM
COc1ccc(-c2cc3nccn3c(Nc3ncccc3C(N)=O)n2)cc1OC	2410 nM
COC(=O)[C@H](CCSC)NC(=O)c1ccc(NC[C@@H](N)CS)cc1-c1ccccc1	> 1020 nM
C=CC(=O)N1CCCC(Nc2nc(Nc3ccc(N(C)C(=O)CC)cc3)nc3[nH]cnc23)C1 (stereo unspecified)	> 10200 nM
Nc1ccccc1NC(=O)c1ccc(CNC(=O)OCc2cccnc2)cc1	1120 nM

# evaluate next
# input Which IC50 is reported for this molecule? `C[C@@H](Oc1cc(-c2cnn(C3CCNCC3)c2)cnc1N)c1c(Cl)ccc(F)c1Cl`
# output > 2000 nM

---

system: SW1783; assay: cells; type: functional, cell-based; settings: Homo sapiens;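 also: cell growth inhibition measured with a viability assay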
Description: SANGER: Inhibition of human SW1783 cell growth in a cell viability assay.
pIC50: −log10 of the molar value.
Measurement Label: pIC50

Past entries and their recorded results:
CO[C@@H]1[C@H](N(C)C(=O)c2ccccc2)C[C@H]2O[C@]1(C)n1c3ccccc3c3c4c(c5c6ccccc6n2c5c31)C(=O)NC4 < 6.29
CN(C)CCOc1ccc(-c2nc(-c3ccncc3)c(-c3ccc4c(c3)CC/C4=N\O)[nH]2)cc1 < 5.30
O=C(NCCCNc1nc(Nc2cccc(NC(=O)N3CCCC3)c2)ncc1I)c1cccs1 5.45
Cc1ccc(-n2nc(C(C)(C)C)cc2NC(=O)Nc2ccc(OCCN3CCOCC3)c3ccccc23)cc1 < 5.00

Please look at the following compound next.
# input Look at this compound and give its reported pIC50. `NC(=O)c1ccc(N(C(N)=O)c2c(F)cccc2F)nc1-c1ccc(F)cc1F`
# output < 5.70

---

tested on: RKO; test: cells; format: functional, cell-based, Homo sapiens; settings: Homo sapiens, RKO;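 also: growth inhibition of human RKO cells, read out with a cell viability assay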
Description: SANGER: Inhibition of human RKO cell growth in a cell viability assay.
Measurement Label: pIC50
Formally, pIC50 is defined as -log10 of the concentration c, with c in mol/L.

C/C(=C\c1csc(C)n1)[C@@H]1C[C@@H]2O[C@]2(C)CCC[C@H](C)[C@H](O)[C@@H](C)C(=O)C(C)(C)[C@@H](O)CC(=O)O1 10.19
NC(=O)Nc1cc(-c2cccc(F)c2)sc1C(=O)N[C@H]1CCCNC1 6.28
NC1(c2ccc(-c3nc4ccn5c(=O)[nH]nc5c4cc3-c3ccccc3)cc2)CCC1 5.73
OC[C@H](Cc1ccccc1)Nc1nc(Oc2ccc3c(c2)CCC3)nc2c1ncn2Cc1ccc(-c2ccccc2)cc1 5.47

# input Reported pIC50 for `Cc1cc(N2CCOCC2)cc2[nH]c(-c3c(NC[C@@H](O)c4cccc(Cl)c4)cc[nH]c3=O)nc12` : what is it?
# output 6.00

---

Recorded measurements of IC50, one per entry
tested on: NCI-H1395; test: cells; format: functional, cell-based, Homo sapiens; conditions: Homo sapiens, NCI-H1395;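 also: cell viability assay read-out quantifying reduced proliferation of human NCI-H1395 cells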
Description: SANGER: Inhibition of human NCI-H1395 cell growth in a cell viability assay.

Guide cases for IC50, answers given:
Compound	IC50
C=CC(=O)N1CCCC(Nc2nc(Nc3ccc(N(C)C(=O)CC)cc3)nc3[nH]cnc23)C1 (stereo unspecified)	> 10.2 µM
O=S(=O)(O)c1ccc2cc(/N=N/c3cc(S(=O)(=O)O)c4cccnc4c3O)ccc2c1	> 16 µM
NC(=O)c1cccc(-c2cc(Nc3ccc(OC(F)(F)F)cc3)ncn2)c1	> 1.28 µM
CC1(C)CCC(c2ccc(Cl)cc2)=C(CN2CCN(c3ccc(C(=O)NS(=O)(=O)c4ccc(N[C@H](CCN5CCOCC5)CSc5ccccc5)c(S(=O)(=O)C(F)(F)F)c4)cc3)CC2)C1	> 2 µM
O=C(NCCCNc1nc(Nc2cccc(NC(=O)N3CCCC3)c2)ncc1I)c1cccs1	> 5 µM

Consider now this further compound.
# input Request the reported IC50 associated with `NC(=O)c1ccc(N(C(N)=O)c2c(F)cccc2F)nc1-c1ccc(F)cc1F`
# output > 2 µM

---

# reported IC50; entries follow
tested on: DK-MG; assay: cells; format: functional, cell-based; details: Homo sapiens
Description: SANGER: Inhibition of human DK-MG cell growth in a cell viability assay.

OC[C@H](Cc1ccccc1)Nc1nc(Oc2ccc3c(c2)CCC3)nc2c1ncn2Cc1ccc(-c2ccccc2)cc1 > 10.2 µM

# input Recorded IC50 of `O=C1NC(=O)c2c1c(-c1ccccc1Cl)cc1[nH]c3ccc(O)cc3c21` , please.
# output > 2 µM

# input Query (molecule): `COC(=O)[C@H](CCSC)NC(=O)c1ccc(NC[C@@H](N)CS)cc1-c1ccccc1` ; field requested: IC50
# output > 1.02 µM

# input Fill blank: measured IC50 of the molecule `COc1ccc(-c2cc3nccn3c(Nc3ncccc3C(N)=O)n2)cc1OC` is ____.
# output > 8 µM

# input Recorded IC50 for `Cc1ccc(-n2nc(C(C)(C)C)cc2NC(=O)Nc2ccc(OCCN3CCOCC3)c3ccccc23)cc1` , please?
# output > 10 µM

# input Can you look up the measured IC50 of `Cc1ccc(C(=O)Nc2ccc(CN3CCN(C)CC3)c(C(F)(F)F)c2)cc1C#Cc1cnc2cccnn12` for me?
# output > 0.512 µM

---

test system: TGBC11TKB; assay: cells; format: functional, cell-based; details: Homo sapiens;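 also: growth inhibition of human TGBC11TKB cells, measured by a cell viability assay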
Description: SANGER: Inhibition of human TGBC11TKB cell growth in a cell viability assay.
Measurement Label: IC50

Some molecules with known IC50 results, for comparison:
CC1(C)CCC(c2ccc(Cl)cc2)=C(CN2CCN(c3ccc(C(=O)NS(=O)(=O)c4ccc(N[C@H](CCN5CCOCC5)CSc5ccccc5)c(S(=O)(=O)C(F)(F)F)c4)cc3)CC2)C1 > 2 µM
CN(C)CCOc1ccc(-c2nc(-c3ccncc3)c(-c3ccc4c(c3)CC/C4=N\O)[nH]2)cc1 > 5 µM

# ---- query molecule ----
# input I'd like to know its IC50. The molecule in question is `CS(=O)(=O)N1CCN(Cc2cc3nc(-c4cccc5[nH]ncc45)nc(N4CCOCC4)c3s2)CC1`
# output > 4 µM

---

test system: NCI-H1092; assay: cells; format: functional, cell-based, Homo sapiens; conditions: Homo sapiens, NCI-H1092;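 also: cell growth inhibition measured with a cell viability assay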
Description: SANGER: Inhibition of human NCI-H1092 cell growth in a cell viability assay.
// values below are reported IC50

CC1(C)CCC(c2ccc(Cl)cc2)=C(CN2CCN(c3ccc(C(=O)NS(=O)(=O)c4ccc(N[C@H](CCN5CCOCC5)CSc5ccccc5)c(S(=O)(=O)C(F)(F)F)c4)cc3)CC2)C1 0.103 µM
O=S(=O)(O)c1ccc2cc(/N=N/c3cc(S(=O)(=O)O)c4cccnc4c3O)ccc2c1 > 16 µM
O=C(NCCCNc1nc(Nc2cccc(NC(=O)N3CCCC3)c2)ncc1I)c1cccs1 > 5 µM

API: the following record is the query input.
# input State the recorded IC50 for this entry: `CS(=O)(=O)N1CCN(Cc2cc3nc(-c4cccc5[nH]ncc45)nc(N4CCOCC4)c3s2)CC1`
# output > 4 µM

---

system: SKG-IIIa; assay: cells; format: functional, cell-based; conditions: Homo sapiens
Description: SANGER: Inhibition of human SKG-IIIa cell growth in a cell viability assay.
Measurement Label: IC50

Example cases with answers are listed next.
CS(=O)(=O)N1CCN(Cc2cc3nc(-c4cccc5[nH]ncc45)nc(N4CCOCC4)c3s2)CC1 2660 nM
CN(C)CCOc1ccc(-c2nc(-c3ccncc3)c(-c3ccc4c(c3)CC/C4=N\O)[nH]2)cc1 > 5000 nM

For the next question, use this compound.
# input For the compound shown here, `O=C1NC(=O)c2c1c(-c1ccccc1Cl)cc1[nH]c3ccc(O)cc3c21` , give the reported IC50.
# output > 2000 nM
